# assay-system: recombinant full-length PfCSP (Plasmodium falciparum circumsporozoite protein, strain NF54) (Plasmodium falciparum NF54, UniProt P19597)
# Sequence (P19597 20-375): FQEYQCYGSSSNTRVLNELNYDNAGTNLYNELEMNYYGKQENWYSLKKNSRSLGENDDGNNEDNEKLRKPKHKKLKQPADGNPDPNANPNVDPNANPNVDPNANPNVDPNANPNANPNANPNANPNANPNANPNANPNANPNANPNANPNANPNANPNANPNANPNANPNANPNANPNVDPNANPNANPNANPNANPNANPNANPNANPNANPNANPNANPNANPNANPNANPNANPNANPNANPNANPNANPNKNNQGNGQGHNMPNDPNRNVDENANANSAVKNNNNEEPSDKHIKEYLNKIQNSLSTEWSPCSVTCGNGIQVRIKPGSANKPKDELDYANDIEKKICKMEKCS
observation-type: binding result

CL-444424 (antibody, V domains shown) VH: QVQLVESGGGVVQPGRSLRLSCTASGFTFSNYGMHWIRQAPGKGLEWVAIIWFDGSSQYYADSVKGRFTISRDNSKNTLYLQMNSLRAEDTAVYYCVRALYDSGSLFDFWGLGTLVTVSS VL: DIQMTQSPSTLSASVGDRVTITCRASQNISSLLAWYQQKPGKAPKLLIYKASSLESGVPSRFSGNGSGTEFTLTVSSLQPDDFATYSCLQYNNYWTFGQGTKVEIK: binds
CL-512761 (antibody, V domains shown) VH: QVQLVESGGGVVQPGTSLRLSCAASGFTFSNYGMHWVRQAPGKGLEWVSITWYDESNKFYADSVKGRFTISRDNSKNTLYLQMNSLRAEDTAVYYCARAYDTLTGYRAQKYGMDVWGQGTTVTVSS VL: DIQMTQSPSTLSASVGDRVTITCRASQRISTWLAWYQQKPGKAPKLLINEASRLESGVPSRFSGSGSGTEFTLTISSLQPDDFATYYCQQYNSYWTFGQGTKVEIK: binds
CL-513701 (antibody, V domains shown) VH: QVQLVESGGGVVQTGRSLRLSCTASGFIFSNYGMYWVRQAPGKGLEWVALIWYDGSNKYYVDSVKGRFTISRDNSKNTLYLQMNSLRAEDTAVYYCARAGKYSGSGSYLDSWGQGTLVTVSS VL: DIQMTQSPSSVSASVGDRVTITCRASQGISSWLAWYQQKPGKAPKLLIYTASSLQSGVPSRFSGSGSGTDFTLTISSLQPDDFATYFCQQYSRYWTFGQGTKVEIK: binds
